Measured drug sensitivity score by item
System: U2OS
testDescription: drug sensitivity score (DSS) for viability; higher = more toxic; extreme values may be limits of the assay
experimentalConditions: 72 h

[
  {
    "molecule": "Cc1ccnc2c1NC(=O)c1cccnc1N2C1CC1",
    "reportedResult": 0
  }
]

In: Recall the reported drug sensitivity score of CCOC(=O)C1=C(COCCN)NC(C)=C(C(=O)OC)C1c1ccccc1Cl (configuration not stated) when tested on U2OS.
Out: 0

In: Recall the reported drug sensitivity score of "CN1CCN(c2cccc3[nH]c(=O)oc23)CC1" when tested on U2OS.
Out: 0

In: Recall the reported drug sensitivity score of "CN(C)c1ccc(/C=C2\C(=O)Nc3ccccc32)cc1" when tested on U2OS.
Out: 0

In: Recall the reported drug sensitivity score of Cc1cc(C(C)(C)CC(C)(C)C)ccc1OCCOCC[N+](C)(C)Cc1ccccc1 [methylbenzethonium-chloride] when tested on U2OS.
Out: 0.6

In: Recall the reported drug sensitivity score of CC12CCC(C(=O)N(CCCCN3CCN(c4ccccn4)CC3)C1=O)C2(C)C (configuration not stated) when tested on U2OS.
Out: 0

In: Recall the reported drug sensitivity score of "Cc1ccc(NC(=O)Nc2cc(C(F)(F)F)ccc2F)cc1Nc1ccc2c(c1)NC(=O)/C2=C\c1ccc[nH]1" when tested on U2OS.
Out: 0.4

In: Recall the reported drug sensitivity score of "Cc1c(C)c(NCC(=O)N(C)C2CCN(Cc3ccc(C(N)=O)cc3)CC2)c(C)c(C)c1N" when tested on U2OS.
Out: 0

In: Recall the reported drug sensitivity score of "CCOC(=O)c1ccc(N(C)c2csc(-c3ccccc3)n2)cc1" when tested on U2OS.
Out: 0

In: Recall the reported drug sensitivity score of "CCCCCCCCCCCCCCCCOP(=O)([O-])OCC[N+](C)(C)C" when tested on U2OS.
Out: 0

In: Recall the reported drug sensitivity score of COc1ccc(COc2cc3oc(=O)c4cc(C(C)O)ccc4c3cc2OC)cc1 (configuration not stated) when tested on U2OS.
Out: 0

In: Recall the reported drug sensitivity score of "Cc1cc(Cn2nnc3c(-c4ccco4)nc(N)nc32)ccc1N" when tested on U2OS.
Out: 0

In: Recall the reported drug sensitivity score of "CO[C@H]1C[C@@H]2CC[C@@H](C)[C@@](O)(O2)C(=O)C(=O)N2CCCC[C@H]2C(=O)O[C@H]([C@H](C)C[C@@H]2CC[C@@H](O)[C@H](OC)C2)CC(=O)[C@H](C)/C=C(\C)[C@@H](O)[C@@H](OC)C(=O)[C@H](C)C[C@H](C)/C=C/C=C/C=C/1C" when tested on U2OS.
Out: 21.2

In: Recall the reported drug sensitivity score of "O=C(c1cc2ccccc2o1)N1CCN(Cc2ccccc2)CC1" when tested on U2OS.
Out: 0

In: Recall the reported drug sensitivity score of "CCN(CC)CCOc1ccc(Cc2ccccc2)cc1" when tested on U2OS.
Out: 0

In: Recall the reported drug sensitivity score of "Cc1ccccc1/N=N/c1ccc(/N=N/c2c(O)ccc3ccccc23)c(C)c1" when tested on U2OS.
Out: 0

In: Recall the reported drug sensitivity score of "CCN(CCCc1ccccc1)CCCc1ccccc1" when tested on U2OS.
Out: 0

###

Measured cell viability by item
Test system: Calu-3
testDescription: cell viability relative to DMSO; higher = less toxic
experimentalConditions: 72 h; 10 nM
State the answer as a number, implicitly in %.

[
  {
    "compound": "CCC(=O)NC1CCc2cccc(OC)c2C1 (stereo not drawn) [8-M-PDOT]",
    "cell viability [%]": 112
  }
]

In: Provide cell viability value for the following compound: COC(=O)C1=C(C)NC(C)=C(C(=O)OC(C)C)[C@@H]1c1cccc2nonc12 [isradipine]
Out: 98.9

In: Provide cell viability value for the following compound: COc1ccc(C(Cl)=C(c2ccc(OC)cc2)c2ccc(OC)cc2)cc1 [chlorotrianisene]
Out: 95.9

In: Provide cell viability value for the following compound: Oc1ccc2ccccc2c1SSc1c(O)ccc2ccccc12 [IPA-3]
Out: 109

In: Provide cell viability value for the following compound: "Cc1cc(N2CCOCC2)ccc1Nc1nc(NC2CCCCC2)c2nc[nH]c2n1"
Out: 98

In: Provide cell viability value for the following compound: CC1(C)CC(Oc2ccc(-c3ccc(-c4cn[nH]c4)cc3O)nn2)CC(C)(C)N1 [LMI070]
Out: 97.1

In: Provide cell viability value for the following compound: CCC(=O)NC[C@@H]1C[C@H]1c1cccc2c1CCO2 [tasimelteon]
Out: 103

In: Provide cell viability value for the following compound: Cn1cc(-c2ccc(S(=O)(=O)n3ccc(/C=C/C(=O)Nc4ccccc4N)c3)cc2)cn1 [4SC-202]
Out: 86
